Below: a set of entries, each annotated with reported Inhibition.
tested on: Candida albicans; conditions: 20 µM
Potency and affinity values are given separately.
measured.property: Inhibition

Cl.c1ccc2c(c1)CCCC2C1=NCCN1 (stereo not drawn) [TETRAHYDROZOLINE HYDROCHLORIDE] ... 3.03%
COc1cc2c(cc1OC)C(=O)C(CC1CCN(Cc3ccccc3)CC1)C2.Cl (stereo not drawn) [DONEPEZIL HYDROCHLORIDE] ... 3.08%
CC(=O)O.CNC(=N)NCCC[C@H](N)C(=O)O [TILARGININE ACETATE] ... 2.96%

----------
tested on: Candida albicans; conditions: 20 µM
Measured potencies and affinities stand elsewhere.
measured.property: Inhibition (%)

CN1CCN(C2=Nc3cc(F)ccc3Cc3ccccc32)CC1 ... 3.99
CC1(C)O[C@@H]2C[C@H]3[C@@H]4CCC5=CC(=O)C=C[C@]5(C)[C@@]4(F)[C@@H](O)C[C@]3(C)[C@]2(C(=O)CO)O1 [TRIAMCINOLONE ACETONIDE] ... 0.96
O=C1c2c(O)cc(O)cc2O[C@H](c2ccc(O)c(O)c2)[C@H]1O [(+)-TAXIFOLIN] ... 3.72
Cl.Clc1cccc(Cl)c1NC1=NCCN1 [CLONIDINE HYDROCHLORIDE] ... 3.3
Cc1ccc(C)c(OCCCC(C)(C)C(=O)O)c1 ... 8.15
CN1CC(=O)N2[C@H](c3ccc4c(c3)OCO4)c3[nH]c4ccccc4c3C[C@@H]2C1=O ... -1.32
COC(=O)C1=C(C)NC(C)=C(C(=O)OC(C)C)C1c1cccc2nonc12 (stereo not given) ... 4.43
Cc1cccc(Nc2ccncc2S(=O)(=O)NC(=O)NC(C)C)c1 [TORSEMIDE] ... 2.49
Oc1ccc(/C=C/c2cc(O)cc(O)c2)cc1 ... 2.92
Cc1ccsc1C(=CCCN1CCC[C@@H](C(=O)O)C1)c1sccc1C.Cl [TIAGABINE HYDROCHLORIDE] ... 1.98
NC(CO)(CO)CO.O=C(c1ccccc1)c1ccc2n1CCC2C(=O)O (stereo not given) ... -0.08
CC1(C)S[C@@H]2[C@H](NC(=O)[C@H](N)c3ccc(O)cc3)C(=O)N2[C@H]1C(=O)O ... 9.25
CC(=O)Nc1ccc(CC(=O)O)cc1 ... -0.65
CC(C)(C)NC(=O)[C@@H]1CN(Cc2cccnc2)CCN1C[C@@H](O)C[C@@H](Cc1ccccc1)C(=O)N[C@H]1c2ccccc2C[C@H]1O.O=S(=O)(O)O [INDINAVIR SULFATE] ... 2.58
CC1=C(/C=C/C(C)=C/C=C/C(C)=C\C(=O)O)C(C)(C)CCC1 ... 1.42
CNCC(O)c1ccc(O)c(O)c1 (stereo not given) [RACEPINEPHRINE] ... 4.12
N#Cc1ccc(C(c2ccc(C#N)cc2)n2cncn2)cc1 ... 2.89
C=C1/C(=C\C=C2/CCC[C@]3(C)[C@@H]([C@H](C)/C=C/[C@@H](O)C4CC4)CC[C@@H]23)C[C@@H](O)C[C@@H]1O ... 0.06
COc1ccnc(C[S+]([O-])c2nc3cc(OC(F)F)ccc3[n-]2)c1OC.O.[Na+] (stereo not given) [PANTOPRAZOLE SODIUM] ... 19.6
CCCc1nc(C(C)(C)O)c(C(=O)OCc2oc(=O)oc2C)n1Cc1ccc(-c2ccccc2-c2nnn[nH]2)cc1 ... 4.08
CCS(=O)(=O)CCn1c([N+](=O)[O-])cnc1C ... 4.29
CC(C)[C@H](N)C(=O)OCCOCn1cnc2c(=O)nc(N)[nH]c21.Cl [VALACYCLOVIR HYDROCHLORIDE] ... 3.14
COc1cc(N)c(Cl)cc1C(=O)N[C@@H]1CCN(CCCOc2ccc(F)cc2)C[C@@H]1OC.O [(R,S)-CISAPRIDE MONOHYDRATE] ... 1.98
O=C(O)CCNC(=O)c1ccc(N=Nc2ccc(O)c(C(=O)O)c2)cc1 ... 4.41
Cl.O.O=C1N(c2ccccc2)c2ccccc2C1(Cc1ccncc1)Cc1ccncc1 ... 3.32
COc1cc([C@@H]2c3cc4c(cc3[C@@H](O[C@@H]3O[C@@H]5CO[C@@H](C)O[C@H]5[C@H](O)[C@H]3O)[C@H]3COC(=O)[C@H]23)OCO4)cc(OC)c1O [ETOPOSIDE] ... 0.59
C#C[C@]1(O)CC[C@H]2[C@@H]3[C@H](C)CC4=C(CCC(=O)C4)[C@H]3CC[C@@]21C ... 6.29
COc1cc2nc(N3CCN(C(=O)C4CCCO4)CC3)nc(N)c2cc1OC (stereo not given) ... 3.05
CCC[C@@H]1C[C@@H](C(=O)N[C@@H]([C@H]2O[C@H](SC)[C@H](O)[C@@H](O)[C@H]2O)[C@@H](C)O)N(C)C1.Cl.O [LINCOMYCIN HYDROCHLORIDE] ... 4.06
CNCCCC12CCC(c3ccccc31)c1ccccc12.Cl [MAPROTILINE HYDROCHLORIDE] ... 3.58

----------
test system: Cryptococcus neoformans; settings: Concentration 20 uM; ASSAY_TEST Inhibition of Fungal Growth; detection method Resazurin; Absorption (OD600-OD570); plate type 384well; NBS; CORNING #3640
Entries with a potency or affinity are not part of this list.
Attribute: Inhibition
measured.property: Inhibition (%)

CC1(C)O[C@@H]2C[C@H]3[C@@H]4CCC5=CC(=O)C=C[C@]5(C)[C@@]4(F)[C@@H](O)C[C@]3(C)[C@]2(C(=O)CO)O1 [TRIAMCINOLONE ACETONIDE] ... -5.82
C=C1/C(=C\C=C2/CCC[C@]3(C)[C@@H]([C@H](C)CCCC(C)(C)O)CC[C@@H]23)C[C@@H](O)C[C@@H]1O ... -8.66
CCN(CC)C(=O)[C@]1(c2ccccc2)C[C@@H]1CN.Cl [1R,2S-MILNACIPRAN HYDROCHLORIDE] ... -10.1
C[C@]12C=CC(=O)C=C1CC[C@@H]1[C@@H]2C(=O)C[C@@]2(C)[C@H]1CC[C@]2(O)C(=O)CO ... -7.34
Cl.c1ccc2c(c1)CCCC2C1=NCCN1 (stereo not drawn) [TETRAHYDROZOLINE HYDROCHLORIDE] ... -3.23
COc1ccc(CC2c3cc(OC)c(OC)cc3CC[N+]2(C)CCC(=O)OCCCCCOC(=O)CC[N+]2(C)CCc3cc(OC)c(OC)cc3C2Cc2ccc(OC)c(OC)c2)cc1OC.O=S(=O)(O)c1ccccc1 (stereo not drawn) ... -0.33
CO[C@H]1O[C@@H]2O[C@@]3(C)CC[C@H]4[C@H](C)CC[C@@H]([C@H]1C)[C@@]24OO3 ... 6.04
Cn1nnc2c(C(N)=O)ncn2c1=O [TEMOZOLOMIDE] ... -1.17
CN(C)c1nc(N(C)C)nc(N(C)C)n1 ... -7.07
CCC(C)(C)/N=C(\NC#N)Nc1cccnc1 ... -26.21
CN1CCN(CC/C=C2/c3ccccc3Sc3ccc(S(=O)(=O)N(C)C)cc32)CC1 ... -5.03
CC(C)(C)NC(=O)[C@@H]1CN(Cc2cccnc2)CCN1C[C@@H](O)C[C@@H](Cc1ccccc1)C(=O)N[C@H]1c2ccccc2C[C@H]1O.O=S(=O)(O)O [INDINAVIR SULFATE] ... -4.45
CCC(=O)OCC(=O)[C@@]1(OC(=O)CC)[C@@H](C)C[C@H]2[C@@H]3CCC4=CC(=O)C=C[C@]4(C)[C@@]3(Cl)[C@@H](O)C[C@@]21C [BECLOMETHASONE DIPROPIONATE] ... 1.67
CNC(=C[N+](=O)[O-])NCCSCc1ccc(CN(C)C)o1.Cl [RANITIDINE HYDROCHLORIDE] ... 5.97
CS(=O)(=O)O.Oc1ccc(C2CNCCc3c2cc(O)c(O)c3Cl)cc1 (stereo not drawn) [FENOLDOPAM MESYLATE] ... -12.04
Cc1cccc(C)c1NC(=O)C1CCCCN1C.Cl (stereo not drawn) [MEPIVACAINE HYDROCHLORIDE] ... -0.84
Cl.NC1CCN(c2cccc(Cl)n2)CC1 ... 0.18
CCc1c(C)[nH]c2c1C(=O)C(CN1CCOCC1)CC2.Cl (stereo not drawn) [MOLINDONE HYDROCHLORIDE] ... 6.64
CN(C)CCCN1c2ccccc2CCc2ccc(Cl)cc21.Cl [CLOMIPRAMINE HYDROCHLORIDE] ... -9.01
CNCC[C@@H](Oc1ccccc1C)c1ccccc1.Cl [ATOMOXETINE HYDROCHLORIDE] ... 5.55
CC(=O)OCC(CCn1cnc2cnc(N)nc21)COC(C)=O ... -0.79
C[C@]12CC[C@@H]3c4ccc(OS(=O)(=O)[O-])cc4CC[C@H]3[C@@H]1CCC2=O.[Na+] [ESTRONE SODIUM SULFATE] ... -4.65
COc1cc2nc(N3CCN(C(=O)C4COc5ccccc5O4)CC3)nc(N)c2cc1OC (stereo not drawn) ... 2.35

Data origin, for the record: ChEMBL document CHEMBL4513141
